Cited source for all entries: PubChem BioAssay AID1963851

Please respond with reported viability, T/C for every item in the list.
# Tested on: 188146-221-R-J1-PDC complex spheroid viability;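 further: spheroids exposed to compounds for seven days; 100% = DMSO vehicle control viability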
# experimental details: Anticancer human tumor 188146-221-R-J1-PDC patient-derived colon adenocarcinoma cell line growth inhibition [POLQ]
# condition info: second compound 3.16 µM; first compound 0.01 µM; stronger effect = lower value
Only the number, expressed in %, is required.

Record lookup: for 188146-221-R-J1-PDC complex spheroid viability, what viability, T/C belongs to CC[C@@]1(O)C(=O)OCc2c1cc1n(c2=O)Cc2cc3c(CN(C)C)c(O)ccc3nc2-1 + Cc1cccc(N(C)C(=O)C2C(O)CCN2c2nc(C)cc(C(F)(F)F)c2C#N)c1 ?
91.8

Record lookup: for 188146-221-R-J1-PDC complex spheroid viability, what viability, T/C belongs to Cn1ncnc1[C@H]1c2n[nH]c(=O)c3cc(F)cc(c23)N[C@@H]1c1ccc(F)cc1 + COC1C(OC(N)=O)C(O)C(Oc2ccc3c(O)c(NC(=O)c4ccc(O)c(CC=C(C)C)c4)c(=O)oc3c2C)OC1(C)C ?
97.5

Record lookup: for 188146-221-R-J1-PDC complex spheroid viability, what viability, T/C belongs to CC[C@@]1(O)C(=O)OCc2c1cc1n(c2=O)Cc2cc3c(CN(C)C)c(O)ccc3nc2-1 + COC1C(OC(N)=O)C(O)C(Oc2ccc3c(O)c(NC(=O)c4ccc(O)c(CC=C(C)C)c4)c(=O)oc3c2C)OC1(C)C ?
91.6

Record lookup: for 188146-221-R-J1-PDC complex spheroid viability, what viability, T/C belongs to Cn1ncnc1[C@H]1c2n[nH]c(=O)c3cc(F)cc(c23)N[C@@H]1c1ccc(F)cc1 + Cc1cccc(N(C)C(=O)C2C(O)CCN2c2nc(C)cc(C(F)(F)F)c2C#N)c1 ?
90

Record lookup: for 188146-221-R-J1-PDC complex spheroid viability, what viability, T/C belongs to CCc1c2c(nc3ccc(O)cc13)-c1cc3c(c(=O)n1C2)COC(=O)[C@]3(O)CC + COC1C(OC(N)=O)C(O)C(Oc2ccc3c(O)c(NC(=O)c4ccc(O)c(CC=C(C)C)c4)c(=O)oc3c2C)OC1(C)C ?
79

Record lookup: for 188146-221-R-J1-PDC complex spheroid viability, what viability, T/C belongs to CCc1c2c(nc3ccc(O)cc13)-c1cc3c(c(=O)n1C2)COC(=O)[C@]3(O)CC + Nc1ccc(C#CCN(C(=O)Cc2ncc(C(F)(F)F)cc2C(F)(F)F)c2ccc(F)cc2)nn1 ?
89.7

Record lookup: for 188146-221-R-J1-PDC complex spheroid viability, what viability, T/C belongs to COc1cccc(OCCCN)c1-c1cc(Nc2cnc(C#N)cn2)n[nH]1 + COC1C(OC(N)=O)C(O)C(Oc2ccc3c(O)c(NC(=O)c4ccc(O)c(CC=C(C)C)c4)c(=O)oc3c2C)OC1(C)C ?
79.8

Record lookup: for 188146-221-R-J1-PDC complex spheroid viability, what viability, T/C belongs to C=CCn1c(=O)c2cnc(Nc3ccc(N4CCN(C)CC4)cc3)nc2n1-c1cccc(C(C)(C)O)n1 + COC1C(OC(N)=O)C(O)C(Oc2ccc3c(O)c(NC(=O)c4ccc(O)c(CC=C(C)C)c4)c(=O)oc3c2C)OC1(C)C ?
98.9

Record lookup: for 188146-221-R-J1-PDC complex spheroid viability, what viability, T/C belongs to CC[C@@]1(O)C(=O)OCc2c1cc1n(c2=O)Cc2cc3c(CN(C)C)c(O)ccc3nc2-1 + Nc1ccc(C#CCN(C(=O)Cc2ncc(C(F)(F)F)cc2C(F)(F)F)c2ccc(F)cc2)nn1 ?
89.3

Record lookup: for 188146-221-R-J1-PDC complex spheroid viability, what viability, T/C belongs to C=CCn1c(=O)c2cnc(Nc3ccc(N4CCN(C)CC4)cc3)nc2n1-c1cccc(C(C)(C)O)n1 + Cc1cccc(N(C)C(=O)C2C(O)CCN2c2nc(C)cc(C(F)(F)F)c2C#N)c1 ?
101
